System tested: T1, RBFOX1 RRM RbFoxmut (Fox-RRM*) (Homo sapiens, UniProt Q9NWB1 109-208, R118D;E147R;N151S;E152T)
T1 sequence: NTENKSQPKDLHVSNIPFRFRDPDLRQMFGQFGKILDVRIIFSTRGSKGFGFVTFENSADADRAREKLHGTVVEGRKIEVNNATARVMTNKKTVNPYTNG
Experiment notes: EMSA; HiTS-Eq, 1 nM pool, 10 min; buffer printed only for the single-RNA assays: 10 mM Tris pH 7.5, 150 mM NaCl, 3.4 mM EDTA, 0.001% NP-40, 30 C
Condition context: tags: His6 N-terminal (pET28a); label: 5' 32P
Whole data set: some 16,000 sequences, median “ka relative to ugcaugu” near 0.096, cut for the highest 2% near 0.35. The full list was thinned out, with the highest values kept by preference.
Could you please report measured binding signal for the items listed next?

Reported binding signal ( UGAUAUA (DNA:RNA) RNA: GGGAGACCGGAAUUCAGAUUGUCCUGAUAUAUUAAAUCCCGUCGUAGCCACCA DNA 1: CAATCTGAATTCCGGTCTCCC DNA 2: TGGTGGCTACGACGGGATT ) = 0.0947 KA relative to UGCAUGU

Value of measured binding signal for the entry GUAUUGU (DNA:RNA) RNA: GGGAGACCGGAAUUCAGAUUGUCCGUAUUGUUUAAAUCCCGUCGUAGCCACCA DNA 1: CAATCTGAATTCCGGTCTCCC DNA 2: TGGTGGCTACGACGGGATT : 0.309 KA relative to UGCAUGU

binding signal in this record for UGAUAUG (DNA:RNA) RNA: GGGAGACCGGAAUUCAGAUUGUCCUGAUAUGUUAAAUCCCGUCGUAGCCACCA DNA 1: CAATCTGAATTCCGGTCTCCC DNA 2: TGGTGGCTACGACGGGATT : 0.437 KA relative to UGCAUGU

# binding signal of CGUCCGU (DNA:RNA) RNA: GGGAGACCGGAAUUCAGAUUGUCCCGUCCGUUUAAAUCCCGUCGUAGCCACCA DNA 1: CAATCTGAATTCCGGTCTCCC DNA 2: TGGTGGCTACGACGGGATT = 0.119 KA relative to UGCAUGU
